Test system: A549
Assay: NCI tumour cell line growth inhibition, 48 h
The source made the active and inactive calls. Cut-off read from the data, not from the text of the source: active = GI50 up to about 1.1 µM and inactive = higher.
Answer with one of the outcomes given here: active, inactive

Example results:
Any idea what this test logged for COC(=O)C1CCC(N2C(=O)CCC2C(=O)OC)=N1 (stereo not drawn) ?
inactive

Any idea what this test logged for O=C1OCC2=C1C(c1ccc(Cl)cc1)c1cc3c(cc1O2)OCO3 (stereo not drawn) ?
inactive

Any idea what this test logged for O=C1c2ccccc2C(=O)C2C1C1C(=O)c3ccccc3C(=O)C21 (stereo not drawn) ?
inactive

Any idea what this test logged for O=c1c(-c2ccccc2)c(SCCN2CCCC2)n(-c2ccccc2)c(=S)n1-c1ccccc1 ?
inactive

Any idea what this test logged for CC(=NNC(=S)Nc1cccc(C)c1)c1cccc(C(C)=NNC(=S)Nc2cccc(C)c2)n1 ?
inactive

Any idea what this test logged for COc1cc2c(c3c1c(=O)c1ccccc1n3C)C=CC1(CCCCC1)O2 ?
active

Any idea what this test logged for CSC(C1c2ccccc2N(C)C2=NC(=O)N(C)C(=O)C21Cl)S(=O)(=O)c1ccc(C)cc1 (stereo not drawn) ?
inactive

Any idea what this test logged for CC(=O)NC1C(OCc2ccccc2)OC(CO)C(O)C1OCC(=O)NC(C)C(=O)NC(CCC(=O)NCCCCNc1ccc([N+](=O)[O-])c2[nH]c3ccccc3c(=O)c12)C(N)=O (stereo not drawn) ?
inactive

---
Any idea what this test logged for O=C(O)/C=C(/CC(=O)O)C(=O)O ?
inactive

Any idea what this test logged for CCN(CC)CCC(=O)c1ccc(Oc2ccc(F)cc2)cc1 ?
inactive

Any idea what this test logged for Cc1ccc(N(C(=O)Nc2ccccc2)C2=NCC(C)S2)cc1C (stereo not drawn) ?
inactive

Any idea what this test logged for O=C1CCCC(=O)N1n1c(Cc2ccccc2)n[nH]c1=O ?
inactive

Any idea what this test logged for CO/C(N)=C(C#N)/N=C/c1ccsc1 ?
inactive

Any idea what this test logged for Cn1c2c(c3ccccc31)C1CCCCCCC1C1C(=O)OC(=O)C21 (stereo not drawn) ?
inactive

Any idea what this test logged for CC1(C)N=C(N)N=C(N)N1c1cccc(C(=O)Nc2ccc(S(=O)(=O)F)cc2)c1 ?
inactive

Any idea what this test logged for NC1CC(=O)c2csc(Br)c21 (stereo not drawn) ?
inactive

Any idea what this test logged for O=C(/C=C/c1ccc2ccccc2c1)NCc1ccc(C(=O)NCCc2ccccc2)cc1 ?
inactive

Any idea what this test logged for COC(=O)CNC(=O)CSc1nnc(COc2ccc(Cl)cc2)n1-c1ccccc1 ?
inactive

Recorded values, source ChEMBL document CHEMBL1201862.
